- target-of-assay: trypsin
- test-description: Determination of Enzyme Selectivity: trypsin
- stated-conditions: substrate at Km concentration
Recorded IC50 for the following molecules

compound-structure	target-of-assay	IC50
Cc1cc(CN)ccc1CNC(=O)c1cc(C)n(Cc2csc(-c3ccccc3)n2)c1C	trypsin	> 40 µM
NCc1ccc(CNC(=O)c2cn(Cc3ccccc3)nc2-c2ccccc2)cc1	trypsin	> 40 µM
Cc1cc(C(=O)NCc2ccc(CN)cc2)c(C)n1Cc1csc(-c2ccccc2)n1	trypsin	> 40 µM
NCc1ccc(CNC(=O)c2cn(Cc3csc(-c4ccccc4)n3)nc2C(F)(F)F)cc1	trypsin	26.6 µM

====

- test-description: Pharmacokinetics following a single oral dose in rats
- Assay type: in vivo
- stated-conditions: rat, nominal 10 mg/kg, male Sprague-Dawley rats, plasma
// label = satisfied if Cmax is not less than 80 ng/mL, otherwise not satisfied

compound-structure	class
Cc1cnn(Cc2ccc(Cn3c(C)cc(C(=O)NCc4c(C)cc(CN)cc4C)c3C)cc2)c1	not satisfied
Cc1cc(C(=O)NCc2ccc(CN)cc2)c(C)n1Cc1csc(-c2ccsc2)n1	satisfied
Cc1cc(CN)ccc1CNC(=O)c1cc(C)n(Cc2csc(-c3ccccc3)n2)c1C	not satisfied
Cc1cc(C(=O)NCc2ccc(CN)c(F)c2)c(C)n1Cc1csc(-c2ccccc2)n1	satisfied
Cc1cc(C(=O)NCc2ccc(CN)nc2)c(C)n1Cc1csc(-c2ccccc2)n1	not satisfied

====

pIC50: −log10 of the molar value.
Below are compounds with their pIC50 as measured on Human KLK1 (Homo sapiens (Human), UniProt P06870).
Sequence (P06870 25-262): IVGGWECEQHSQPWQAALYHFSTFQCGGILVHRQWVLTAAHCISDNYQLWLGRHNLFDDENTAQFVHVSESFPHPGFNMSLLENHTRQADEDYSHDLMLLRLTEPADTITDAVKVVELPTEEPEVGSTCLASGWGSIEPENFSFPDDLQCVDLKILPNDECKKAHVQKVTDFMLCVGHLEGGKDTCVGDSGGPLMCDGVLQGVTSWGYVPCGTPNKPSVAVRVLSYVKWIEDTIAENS

compound-structure	target-of-assay	pIC50
Cc1cc(C(=O)NCc2ccc(CN)c(F)c2)c(C)n1Cc1csc(-c2ccccc2)n1	Human KLK1 (Homo sapiens (Human), UniProt P06870)	< 5.00
Cc1ccc2cc(Cn3cc(C(=O)NCc4c(C)cc(CN)cc4C)c(C(F)(F)F)n3)ccc2n1	Human KLK1 (Homo sapiens (Human), UniProt P06870)	6.25
Cc1cnn(Cc2ccc(Cn3c(C)cc(C(=O)NCc4c(C)cc(CN)cc4C)c3C)cc2)c1	Human KLK1 (Homo sapiens (Human), UniProt P06870)	5.20
Cc1cc(C(=O)NCc2ccc(CN)cc2)c(C)n1Cc1cccc(N2CCCCC2)c1	Human KLK1 (Homo sapiens (Human), UniProt P06870)	< 5.00
CCOc1ccc(-c2nc(Cn3c(C)cc(C(=O)NCc4ccc(CN)cc4)c3C)cs2)cc1	Human KLK1 (Homo sapiens (Human), UniProt P06870)	< 5.00
Cc1cc(C(=O)NCc2ccc(CN)cc2F)c(C)n1Cc1csc(-c2ccccc2)n1	Human KLK1 (Homo sapiens (Human), UniProt P06870)	< 5.00
Cc1cnn(Cc2ccc(Cn3cc(C(=O)NCc4c(C)cc(CN)cc4C)c(C(F)(F)F)n3)cc2)c1	Human KLK1 (Homo sapiens (Human), UniProt P06870)	< 5.00
Cc1cc(C(=O)NCc2ccc(CN)cc2)c(C)n1Cc1cccc(CN)c1	Human KLK1 (Homo sapiens (Human), UniProt P06870)	5.37
Cc1ccc2cc(Cn3cc(C(=O)NCc4c(C)cc(CN)cc4C)c(C)n3)ccc2n1	Human KLK1 (Homo sapiens (Human), UniProt P06870)	6.52
Cc1cc(C(=O)NCc2ccc(CN)cc2)c(C)n1Cc1csc(Cc2ccccc2)n1	Human KLK1 (Homo sapiens (Human), UniProt P06870)	< 5.00
Cc1cnn(Cc2ccc(Cn3ncc(C(=O)NCc4c(C)cc(CN)cc4C)c3C)cc2)c1	Human KLK1 (Homo sapiens (Human), UniProt P06870)	< 5.00
Cc1cc(C(=O)NCc2ccc(CN)cc2)c(C)n1Cc1coc(-c2ccccc2)n1	Human KLK1 (Homo sapiens (Human), UniProt P06870)	< 5.00
Cc1cc(C(=O)NCc2ccc(CN)cc2)c(C)n1Cc1csc(-c2ccncc2)n1	Human KLK1 (Homo sapiens (Human), UniProt P06870)	< 5.00
Cc1cnn(Cc2ccc(Cn3c(C)cc(C(=O)NCc4ccc(CN)cc4)c3C)cc2)c1	Human KLK1 (Homo sapiens (Human), UniProt P06870)	< 5.00
Cc1cc(C(=O)NCc2ccc(CN)cc2)[nH]c1Cc1ccccc1	Human KLK1 (Homo sapiens (Human), UniProt P06870)	< 5.00
COc1cc(CN)ccc1CNC(=O)c1cc(C)n(Cc2csc(-c3ccccc3)n2)c1C	Human KLK1 (Homo sapiens (Human), UniProt P06870)	< 5.00
Cc1cc(C(=O)NCc2ccc(CN)nc2)c(C)n1Cc1csc(-c2ccccc2)n1	Human KLK1 (Homo sapiens (Human), UniProt P06870)	< 5.00
Cc1cc(C(=O)NCc2ccc(CN)cc2)c(C)n1Cc1ccc(-c2ccccc2)s1	Human KLK1 (Homo sapiens (Human), UniProt P06870)	< 5.00
Cc1cc(C(=O)NCc2ccc([C@H](C)N)cc2)c(C)n1Cc1csc(-c2ccccc2)n1	Human KLK1 (Homo sapiens (Human), UniProt P06870)	< 5.00
Cc1cnn(Cc2ccc(Cn3cc(C(=O)NCc4ccc(C5(N)CC5)cc4)nn3)cc2)c1	Human KLK1 (Homo sapiens (Human), UniProt P06870)	< 5.00
Cc1cccc(-c2nc(Cn3c(C)cc(C(=O)NCc4ccc(CN)cc4)c3C)cs2)c1	Human KLK1 (Homo sapiens (Human), UniProt P06870)	< 5.00
Cc1cnn(Cc2ccc(Cn3cc(C(=O)NCc4ccc(CN)cc4)nn3)cc2)c1	Human KLK1 (Homo sapiens (Human), UniProt P06870)	< 5.00
Cc1cnn(Cc2ccc(Cn3cnc(C(=O)NCc4ccc(CN)cc4)c3)cc2)c1	Human KLK1 (Homo sapiens (Human), UniProt P06870)	< 5.00
CCn1c(C(=O)NCc2ccc(CN)cc2C)cc(C)c1Cc1ccc(Cn2cc(C)cn2)cc1	Human KLK1 (Homo sapiens (Human), UniProt P06870)	< 5.00
Cc1cc(CNC(=O)c2cc(C)n(Cc3csc(-c4ccccc4)n3)c2C)ccc1CN	Human KLK1 (Homo sapiens (Human), UniProt P06870)	5.31
Cc1nn(Cc2csc(-c3ccccc3)n2)cc1C(=O)NCc1ccc(CN)cc1	Human KLK1 (Homo sapiens (Human), UniProt P06870)	< 5.00
Cc1cc(C(=O)NCc2ccc(CN)cc2)c(C)n1Cc1csc(-c2ccccc2)c1	Human KLK1 (Homo sapiens (Human), UniProt P06870)	< 5.00
Cc1cc(C(=O)NCc2ccc(CN)cc2)c(C)n1Cc1csc(-c2cccs2)n1	Human KLK1 (Homo sapiens (Human), UniProt P06870)	< 5.00
NCc1ccc(CNC(=O)c2cn(Cc3ccccc3)nc2-c2ccccc2)cc1	Human KLK1 (Homo sapiens (Human), UniProt P06870)	< 5.00
Cc1cc(C(=O)NCc2ccc(CN)cc2C(F)(F)F)c(C)n1Cc1csc(-c2ccccc2)n1	Human KLK1 (Homo sapiens (Human), UniProt P06870)	< 5.00
Cc1cc(C(=O)NCc2ccc(CN)cc2)c(C)n1Cc1ccc(Cn2ccccc2=O)cc1	Human KLK1 (Homo sapiens (Human), UniProt P06870)	< 5.00
Cc1cnn(Cc2ccc(Cn3c(C)cc(C(=O)NCc4ccc(C5(N)CC5)cc4)c3C)cc2)c1	Human KLK1 (Homo sapiens (Human), UniProt P06870)	< 5.00
Cc1cnn(Cc2ccc(Cn3cc(C(=O)NCc4c(C)cc(CN)cc4C)nn3)cc2)c1	Human KLK1 (Homo sapiens (Human), UniProt P06870)	< 5.00
